- test_name: clinical;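 note: plasma levels quantified by validated LC-MS/MS, LLOQ 0.1 ng/mL for HDP-CDV and 0.5 ng/mL for CDV, crossover design with 14-day washout between single doses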
- condition_info: male, human, plasma, oral, 40 mg
property_label: AUC(0-t) (ng·h/mL)
Give the quantity in ng·h/mL, number only.

Value of AUC(0-t) reported for the compound CCCCCCCCCCCCCCCCOCCCOP(=O)(O)COC(CO)Cn1ccc(N)nc1=O (stereo not shown) is 457

====

- test_name: clinical
- condition_info: male, human, plasma, po, 40 mg
property_label: AUC(0-inf) (ng·h/mL)
Give the quantity in ng·h/mL, number only.

Value of AUC(0-inf) reported for the compound CCCCCCCCCCCCCCCCOCCCOP(=O)(O)COC(CO)Cn1ccc(N)nc1=O (stereo not shown) is 574

====

- test_name: clinical
- condition_info: male, human, plasma, oral, 40 mg
property_label: AUC(0-inf)
Please report the result as a number followed by the unit.

Value of AUC(0-inf) reported for the compound CCCCCCCCCCCCCCCCOCCCOP(=O)(O)COC(CO)Cn1ccc(N)nc1=O (stereo not shown) is 0.476 µg·h/mL

====

- test_name: clinical
- condition_info: male, human, plasma, oral, 40 mg
property_label: Cmax (ng/mL)
Give the quantity in ng/mL, number only.

Value of Cmax reported for the compound CCCCCCCCCCCCCCCCOCCCOP(=O)(O)COC(CO)Cn1ccc(N)nc1=O (stereo not shown) is 70.5

====

- test_name: clinical
- condition_info: male, human, plasma, po, 40 mg
property_label: Vd/F (L)
Give the quantity in L, number only.

Value of Vd/F reported for the compound CCCCCCCCCCCCCCCCOCCCOP(=O)(O)COC(CO)Cn1ccc(N)nc1=O (stereo not shown) is 831

Data credit: patent US20150087619A1
